Values from patent US20030068675

# TARGET DESC: ZFP SBS#289 (synthetic)
# Sequence (chain, as listed by the source): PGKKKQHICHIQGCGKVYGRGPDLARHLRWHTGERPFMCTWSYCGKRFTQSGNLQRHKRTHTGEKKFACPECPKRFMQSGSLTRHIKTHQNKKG
# ASSAY DETAILS: EMSA
# TEST PARAMETERS: tags: MBP fusion
EXPERIMENTAL READOUT: pKd
Numbers only, as −log10 of the molar value.

Prompt: Output measured pKd for this item: GCAGAAGCG (dsDNA) DNA 1: GCAGAAGCG DNA 2: CGCTTCTGC
Completion: 6.10
